- Measured on: UniProt:P37231
- Sequence (P37231 238-503 limits assumed): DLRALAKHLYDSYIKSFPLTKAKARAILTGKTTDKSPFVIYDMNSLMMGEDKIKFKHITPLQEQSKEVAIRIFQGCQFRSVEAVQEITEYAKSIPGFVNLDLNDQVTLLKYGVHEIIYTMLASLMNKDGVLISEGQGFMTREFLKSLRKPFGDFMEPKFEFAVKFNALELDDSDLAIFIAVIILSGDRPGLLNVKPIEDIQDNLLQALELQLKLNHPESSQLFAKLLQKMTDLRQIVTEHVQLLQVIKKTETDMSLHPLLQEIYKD
- Protocol details: PPAR agonist activity measurement test (cell-free FRET cofactor assay), PPARγ
- Measurement conditions: FRET, cofactor peptide SRC1; twelve concentrations 50 μM to 0 nM; 1% DMSO; read-out: ED50 (the source's name)
Metric name: EC50 (µM)
Reply with just the number (in µM).

Data request, read-out EC50, for CCCc1nc(CSc2ccc(Oc3ccc4nc(COc5ccc(CC6SC(=O)NC6=O)cc5)n(C)c4c3)cc2)c(C(=O)OCC)n1Cc1ccc(-c2ccccc2-c2nnn[nH]2)cc1 (stereo not shown) 0.114
